Tested on: ragweed (common ragweed, Ambrosia elatior)
Assay: Test A postemergence
Type: in vivo
Settings: Ambrosia artemisiifolia, post-emergence, 240 h, 31 g ai/ha, 0 to 100 scale, read-out: Plant response rating, Ragweed
Excerpt: […]
assay_metric: pest or weed control at 31 g/ha
The reply should consist of the numeric value with the unit placed after it.

Solved cases below.
Fc1cnc(Oc2c(F)ccc(F)c2Oc2ncc(F)cn2)nc1 [Compound 29]; 40%
N#Cc1cccc(Oc2ncc(Cl)cn2)c1Oc1cnc(Cl)cn1 [Compound 32]; 10%
N#Cc1cccc(Oc2ncc(Cl)cn2)c1Oc1cccnc1 [Compound 8]; 0%

Record pest or weed control at 31 g/ha for all entries; do not skip any.
1. N#Cc1cccc(Oc2ncc(Br)cn2)c1Oc1ncc(Cl)cn1 [Compound 5]
2. N#Cc1cccc(Oc2ncc(Cl)cn2)c1Oc1ccc(Cl)cc1 [Compound 36]
3. N#Cc1cccc(Oc2ncc(Cl)cn2)c1Oc1ccccc1Cl [Compound 40]
4. FC(F)c1cnc(Oc2c(Br)cccc2Oc2ncc(Cl)cn2)s1 [Compound 10]
5. N#Cc1cccc(Oc2ncc(Cl)cn2)c1Oc1ccc(Br)cn1 [Compound 15]

Response:
20%
10%
0%
0%
10%

###

System: Italian ryegrass (Lolium multiflorum)
Experiment: Test A preemergence
Type: in vivo
Details: 125 g ai/ha, 0 to 100 scale (0 no effect, 100 complete control)
assay_metric: Ryegrass, Italian plant response rating

Fc1ccc(F)c(Oc2ncc(C(F)(F)F)cn2)c1Oc1ncc(Cl)cn1; 40
N#Cc1cccc(Oc2ncc(Cl)cn2)c1Oc1ccc(C(F)(F)F)nn1; 0
N#Cc1cccc(Oc2ncc(Cl)cn2)c1Oc1ccc(OC(F)(F)F)cc1; 0

Kindly consider the entry below.
Prompt: // returns reported Ryegrass, Italian plant response rating for input N#Cc1cccc(Oc2ncc(C(F)(F)F)cn2)c1Oc1ncc(C(F)(F)F)cn1
Response: 10

###

Test system: giant foxtail (Setaria faberii)
Experiment: Test C postemergence
Assay type: in vivo
Conditions: Setaria faberi, post-emergence, 336 h; Postemergence, 62 g ai/ha, scale 0 to 100; read-out: Plant response rating, Foxtail, Giant
assay_metric: pest or weed control at 62 g/ha (%)
Give bare numbers, in %.

N#Cc1cccc(Oc2ncc(Cl)cn2)c1Oc1ncc(C(F)(F)F)cn1; 10
N#Cc1cccc(Oc2ncc(Cl)cn2)c1Oc1ccc(Cl)cc1; 10
Fc1cccc(Oc2ncc(C(F)(F)F)cn2)c1Oc1ncc(Cl)cn1; 35
Fc1cccc(Oc2ncc(Cl)cn2)c1Oc1ncc(C(F)(F)F)cn1; 15

Prompt: // returns reported pest or weed control at 62 g/ha for input N#Cc1cccc(Oc2ncc(Cl)cn2)c1Oc1ccc(Cl)cn1
Response: 20

###

System: kochia (Kochia scoparia)
Experiment: Test A preemergence
Assay type: in vivo
Settings: Bassia scoparia, pre-emergence, 240 h, 1000 g ai/ha, 0 to 100 scale, read-out: Plant response rating, Kochia
Source text: […]
Please provide measured pest or weed control at 1000 g/ha for the entries that follow.
Numbers only, in %.

Record pest or weed control at 1000 g/ha for all entries; do not skip any.
1. Clc1cnc(Oc2cccc(Cl)c2Oc2ncc(Br)cn2)nc1
2. Fc1cnc(Oc2c(Cl)cccc2Oc2ncc(Cl)cn2)nc1
3. Fc1cccc(Oc2ncc(Cl)cn2)c1Oc1ccc(Cl)nc1
4. Fc1cccc(Oc2ncc(Cl)cn2)c1Oc1ncc(Br)cn1

Response:
[100, 100, 90, 100]

###

assay_metric: melting point

Fc1cnc(Oc2c(Br)cccc2Oc2ncc(Cl)cn2)nc1 [Compound 22]; 113 to 116 °C
N#Cc1cccc(Oc2ncc(Cl)cn2)c1Oc1ccccc1Cl [Compound 40]; 120 to 123 °C
N#Cc1cccc(Oc2ncc(Cl)cn2)c1Oc1cccc(Cl)c1 [Compound 37]; 122 to 126 °C
N#Cc1cccc(Oc2ncc(Cl)cn2)c1Oc1ccc(Cl)cc1 [Compound 36]; 172 to 175 °C
N#Cc1cccc(Oc2ncc(C(F)(F)F)cn2)c1Oc1ncc(Cl)cn1 [Compound 39]; 109 to 112 °C

Record melting point for all entries; do not skip any.
1. FC(F)c1cnc(Oc2c(Br)cccc2Oc2ncc(Cl)cn2)s1 [Compound 10]
2. N#Cc1cccc(Oc2ncc(Cl)cn2)c1Oc1ncc(C(F)(F)F)cn1 [Compound 38]
3. Fc1ccc(F)c(Oc2ncc(Cl)cn2)c1Oc1ncc(Cl)cn1 [Compound 34]
4. Fc1cnc(Oc2c(F)ccc(F)c2Oc2ncc(F)cn2)nc1 [Compound 29]
5. Fc1ccc(F)c(Oc2ncc(Br)cn2)c1Oc1ncc(Br)cn1 [Compound 31]
6. Clc1cnc(Oc2cccc(Cl)c2Oc2ncc(Br)cn2)nc1 [Compound 17]
7. Fc1cnc(Oc2c(F)cccc2Oc2ncc(Cl)cn2)nc1 [Compound 23]

Response:
1. 113 to 116 °C
2. 101 to 103 °C
3. 158 to 161 °C
4. 158 to 161 °C
5. 166 to 170 °C
6. 166 to 169 °C
7. 141 to 145 °C

Record melting point for all entries; do not skip any.
1. Fc1cnc(Oc2c(F)ccc(F)c2Oc2ncc(Cl)cn2)nc1 [Compound 28]
2. Fc1cccc(Oc2ncc(Cl)cn2)c1Oc1ncc(Br)cn1 [Compound 27]

Response:
1. 94 to 98 °C
2. 145 to 148 °C

###

System: barnyardgrass (Echinochloa crus-galli)
Assay: Test B flooded paddy
Type: in vivo
Details: Echinochloa crus-galli, 336 h; 250 g ai/ha, Flood, 13 to 15 days, scale 0 (no effect) to 100 (complete control); read-out: Plant response rating, Barnyardgrass
Please provide measured pest or weed control at 250 g/ha for the entries that follow.
The reply should consist of the numeric value with the unit placed after it.

N#Cc1cccc(Oc2ncc(Cl)cn2)c1Oc1ncc(Br)cn1; 0%
Fc1cccc(Oc2ncc(Cl)cn2)c1Oc1ncc(Br)cn1; 50%
N#Cc1cccc(Oc2ncc(Cl)cn2)c1Oc1ncc(Cl)cn1; 20%

Record pest or weed control at 250 g/ha for all entries; do not skip any.
1. N#Cc1cccc(Oc2ncc(Cl)cn2)c1Oc1ccc(Cl)cn1
2. N#Cc1cccc(Oc2ncc(Cl)cn2)c1Oc1ccc(Br)cn1
3. N#Cc1cccc(Oc2ncc(Br)cn2)c1Oc1ncc(Cl)cn1
4. Fc1cccc(Oc2ncc(Cl)cn2)c1Oc1ccc(Cl)nc1
5. N#Cc1cccc(Oc2ncc(C(F)(F)F)cn2)c1Oc1ncc(Cl)cn1
6. Clc1cnc(Oc2cccc(Br)c2Oc2ncc(Cl)cn2)nc1

Response:
1: 20%; 2: 0%; 3: 35%; 4: 20%; 5: 50%; 6: 15%

###

Please provide measured pest or weed control at 125 g/ha for the entries that follow.
System: barnyardgrass (Echinochloa crus-galli)
Assay: Test A postemergence
Format: in vivo
Details: Echinochloa crus-galli, post-emergence, 240 h, 125 g ai/ha, 0 to 100 scale, read-out: Plant response rating, Barnyardgrass
One number for each entry, in %.

Solved cases below.
N#Cc1cccc(Oc2ncc(Br)cn2)c1Oc1cccnc1 [Compound 7]; 0
FC(F)c1cnc(Oc2c(Br)cccc2Oc2ncc(Cl)cn2)s1 [Compound 10]; 20
N#Cc1cccc(Oc2ncc(Cl)cn2)c1Oc1ccc(Br)cn1 [Compound 15]; 20

Record pest or weed control at 125 g/ha for all entries; do not skip any.
1. Fc1cccc(Oc2ncc(C(F)(F)F)cn2)c1Oc1ncc(Cl)cn1 [Compound 42]
2. N#Cc1cccc(Oc2ncc(Br)cn2)c1Oc1ccc(Br)cn1 [Compound 12]
3. Fc1cccc(Oc2ncc(Cl)cn2)c1Oc1ncc(Cl)cn1 [Compound 21]
4. N#Cc1cccc(Oc2ncc(F)cn2)c1Oc1ccc(Br)cn1 [Compound 9]
5. N#Cc1cccc(Oc2ncc(Cl)cn2)c1Oc1cccc(Cl)c1 [Compound 37]

Response:
100
20
80
50
0

Record pest or weed control at 125 g/ha for all entries; do not skip any.
1. FC(F)c1cccc(Oc2ncc(Br)cn2)c1Oc1ncc(Cl)cn1 [Compound 41]
2. Fc1ccc(F)c(Oc2ncc(Br)cn2)c1Oc1ncc(Br)cn1 [Compound 31]
3. N#Cc1cccc(Oc2ncc(Br)cn2)c1Oc1ncc(Br)cn1 [Compound 1]

Response:
1. 80
2. 20
3. 70

###

Please provide measured plant injury at 31 g/ha for the entries that follow.
Tested on: winter wheat (Triticum aestivum)
Experiment: Test C postemergence
Type: in vivo
Conditions: Triticum aestivum, post-emergence, 336 h; Postemergence, 31 g ai/ha, scale 0 to 100; read-out: Plant response rating, Wheat

Solved cases below.
Fc1cnc(Oc2c(Cl)cccc2Oc2ncc(Cl)cn2)nc1; 0%
Fc1cccc(Oc2ncc(Cl)cn2)c1Oc1ccc(Cl)nc1; 0%
FC(F)c1cccc(Oc2ncc(Cl)cn2)c1Oc1ncc(Cl)cn1; 5%
Fc1cccc(Oc2ncc(Cl)cn2)c1Oc1ncc(C(F)(F)F)cn1; 0%
N#Cc1cccc(Oc2ncc(Cl)cn2)c1Oc1ncc(Cl)cn1; 0%

Kindly consider the entry below.
Prompt: // returns reported plant injury at 31 g/ha for input Clc1cnc(Oc2cccc(Cl)c2Oc2ncc(Br)cn2)nc1
Response: 0%

This collection of values is drawn from patent US20170190671A1.
